- Test system: GM3
- Measurement description: GM3 Elisa assay
- Assay type: cell-based
- Experimental setup: Table 3 (IC 50 Values); B16-FO cells; read-out: IC50_uM_Mean
Listing of entries alongside the reported IC50.

Illustrative cases are given below, each with its answer.
COc1ccc(OCCC(=O)N[C@H](CN2CCC(F)(F)CC2)[C@H](O)c2ccc3c(c2)OCCO3)cc1 : 3000 to 10000 nM
COc1ccc(C(=O)CCCCCC(=O)N[C@H](CN2CCC[C@H]2C)[C@@H](O)c2ccc3c(c2)OCCO3)cc1 : ≤ 100 nM
COc1ccc(OCCC(=O)N[C@H](CN2CC[C@H](F)C2)[C@H](O)c2ccc3c(c2)OCCO3)cc1 : 3000 to 10000 nM
COc1ccc(C(=O)CCCCCC(=O)N[C@H](CN2CCCC2)[C@H](O)c2ccc(OC(F)(F)F)cc2)cc1 : 100 to 1000 nM

Exercise: Which measured IC50 belongs to COc1ccc(C(=O)CCCC(=O)N[C@H](CN2CCCC2)[C@H](O)c2ccc(Cl)s2)cc1 , tested on GM3?
Key: 100 to 1000 nM

Exercise: Now consider COCCOc1ccc(C(=O)CCCCC(=O)N[C@H](CN2CC[C@H](O)C2)[C@H](O)c2ccc(OCCCCF)cc2)cc1 and answer again.
Key: ≤ 100 nM

* * *

Measured IC50, listed per entry for reference.
- System: GM3
- Measurement description: GM3 Elisa assay
- Assay type: cell-based
- Experimental setup: Table 3 (IC 50 Values); B16-FO cells; read-out: IC50_uM_Mean

Example entries begin here.
COc1ccc(OCCC(=O)N(CC(=O)c2ccc(OC)cc2)[C@H](CN2CCCC2)[C@H](O)c2ccc(O)cc2)cc1 : 3000 to 10000 nM
COc1ccc(C(=O)CCCCC(=O)N[C@H](CN2CCCC2)[C@H](O)c2ccc(C(F)(F)F)cc2)cc1 : 1000 to 3000 nM
O=C(CCCC#CC1(O)CCCCC1)N[C@H](CN1CCCC1)[C@H](O)c1ccc2c(c1)OCCO2 : 3000 to 10000 nM

Exercise: Please look up its IC50: CC1CCN(C[C@@H](NC(=O)CCCCCC(=O)c2ccccc2)[C@H](O)c2ccc3c(c2)OCCO3)CC1
Key: 3000 to 10000 nM

Exercise: Try this compound next: O=C(CCCCC(=O)c1ccc(F)cc1)N[C@H](CN1CCCC1)[C@H](O)c1ccc2c(c1)OCCO2
Key: 100 to 1000 nM

Exercise: And then COc1ccc(OCCC(=O)N[C@H](CN2CC[C@H](O)C2)[C@H](O)c2ccc(OC(C)C)cc2)cc1 , what is it?
Key: ≤ 100 nM

Exercise: Same thing, different compound: COc1ccc(C(=O)CCCCCC(=O)N[C@H](CN2CCCCC2C)[C@H](O)c2ccc3c(c2)OCCO3)cc1 (some centres unmarked)
Key: 1000 to 3000 nM

Exercise: Please do the same for COc1ccc(OCCC(=O)N[C@H](CN2CCC[C@H]2C(F)(F)F)[C@H](O)c2ccc3c(c2)OCCO3)cc1 as well.
Key: 3000 to 10000 nM

Exercise: // next record O=C(CCCCC(=O)C1CCC(F)(F)CC1)N[C@H](CN1CCCC1)[C@H](O)c1ccc2c(c1)OCCO2
Key: 1000 to 3000 nM

Exercise: Request: COc1ccc(C(=O)CCCCCC(=O)N[C@H](CN2CCCC2)[C@H](O)/C=C/c2ccccc2)cc1
Key: 1000 to 3000 nM

Exercise: Now try O=C(Cc1ccc(OC(F)(F)F)cc1)NC(CN1CCCC1)[C@H](O)c1ccc(Cl)s1 (some centres unmarked) .
Key: 3000 to 10000 nM

Exercise: Field entry: O=C(CCCS(=O)(=O)C1CCCCC1)N[C@H](CN1CCCC1)[C@H](O)c1ccc2c(c1)OCCO2
Key: 3000 to 10000 nM

Exercise: Try this compound too: CCCCOc1ccc(C(CN2CCCC2)NC(=O)CCCCC(=O)c2ccc(OC)cc2)cc1 (centres unmarked)
Key: 3000 to 10000 nM

Exercise: Repeat for the following compound: O=C(CCCCS(=O)(=O)C12CC3CC(CC(C3)C1)C2)N[C@H](CN1CCCC1)[C@H](O)c1ccc2c(c1)OCCO2
Key: 100 to 1000 nM

Exercise: Another: CC(O)(CCCCCC(=O)N[C@H](CN1CCCC1)[C@H](O)c1ccc2c(c1)OCCO2)C1CC1 (some centres unmarked)
Key: 100 to 1000 nM

Exercise: Please give the result for COCCCCCCCC(=O)N[C@H](CN1CC[C@H](O)C1)[C@H](O)c1ccc(OC(C)C)cc1 too.
Key: ≤ 100 nM

Exercise: Now this one: O=C(CCOc1ccnc2ccccc12)N[C@H](CN1CCCC1)[C@H](O)c1ccc2c(c1)OCCO2
Key: 100 to 1000 nM
